Recorded measurements of viscosity, one per entry
# Recorded conditions: 318.15 K; 100 kPa; Liquid; Concentric cylinders viscometry
Write the answer as a number in mPa·s, unit excluded.

compound="CCCCn1cc[n+](C)c1.N#CN=C=[N-] [1-butyl-3-methylimidazolium dicyanamide]" measured=15.38
compound="CCCCn1cc[n+](C)c1.N#C[S-] [1-butyl-3-methylimidazolium thiocyanate]" measured=27.8
compound="CCCCn1cc[n+](C)c1.F[B-](F)(F)F [1-butyl-3-methylimidazolium tetrafluoroborate]" measured=43.47
compound="CC(=O)[O-].CCCCn1cc[n+](C)c1 [1-butyl-3-methylimidazolium acetate]" measured=85.03

Attention now shifts to the item below.
Entry CCCCn1cc[n+](C)c1.COP(=O)([O-])OC [1-butyl-3-methyl-1H-imidazolium dimethylphosphate] , viscosity reported as 174.7
